- test-system: Aβ (Homo sapiens, UniProt P05067)
- Construct: is a 42 amino acid proteolytic product from the amyloid precursor protein; purchased Invitrogen
- Sequence (P05067 672-713 limits assumed): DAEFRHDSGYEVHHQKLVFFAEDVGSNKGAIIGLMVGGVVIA
- assay-summary: AFM imaging of Aβ samples
- assay-setup: Aβ 10 μM, NMIs 20 μM; FIG. 1C
measured-property: morphology of Aβ sample, aggregation inhibition

molecule | readout-value
CN(C)c1ccc2c3c(cccc13)C(=O)N(CCN(Cc1ccccn1)Cc1ccccn1)C2=O | fibrillar structures
O=C1c2cccc3c(N(Cc4ccccn4)Cc4ccccn4)ccc(c23)C(=O)N1CCN(Cc1ccccn1)Cc1ccccn1 | fibrillar structures
O=C1c2cccc3c(N(Cc4ccccn4)Cc4ccccn4)ccc(c23)C(=O)N1CCc1ccc(O)c(O)c1 | amorphous structures
CN(C)c1ccc2c3c(cccc13)C(=O)N(CCc1ccc(O)c(O)c1)C2=O | amorphous structures

----------
- test-system: preformed Aβ fibrillar aggregates (Homo sapiens, UniProt P05067)
- Construct: is a 42 amino acid proteolytic product from the amyloid precursor protein
- Sequence (P05067 672-713 limits assumed): as above
- assay-summary: Dot blot assay of dissolution of preformed Aβ fibrillar aggregates
- assay-setup: Aβ aggregates 10 μM
pEC50: −log10 of the molar value.

compound | pEC50
O=C1c2cccc3c(N(Cc4ccccn4)Cc4ccccn4)ccc(c23)C(=O)N1CCc1ccc(O)c(O)c1 [M3] | 5.10

----------
- test-system: Aβ fibrils (Homo sapiens, UniProt P05067)
- Construct: is a 42 amino acid proteolytic product from the amyloid precursor protein
- Sequence (P05067 672-713 limits assumed): as above
- assay-summary: Dot blot assay of Aβ fibrillar aggregation inhibition (OC antibody)
- assay-setup: Aβ 10 μM
pIC50: −log10 of the molar value.
measured-property: pIC50

molecule | measured-property | readout-value
O=C1c2cccc3c(N(Cc4ccccn4)Cc4ccccn4)ccc(c23)C(=O)N1CCc1ccc(O)c(O)c1 | pIC50 | 6.00

----------
- test-system: Aβ fibrils (Homo sapiens, UniProt P05067)
- Construct: is a 42 amino acid proteolytic product from the amyloid precursor protein; purchased Invitrogen
- assay-summary: Dot blot assay of Aβ fibrillar aggregation inhibition (OC antibody)
- Assay type: biochemical
- assay-setup: Aβ 10 μM, NMIs 20 μM, PBS pH 7.4, 37° C., 48 h
The entries below come with measured inhibition of the formation of Aβ fibrils values attached.
measured-property: inhibition of the formation of Aβ fibrils

molecule | readout-value
O=C1c2cccc3c(N(Cc4ccccn4)Cc4ccccn4)ccc(c23)C(=O)N1CCc1ccc(O)c(O)c1 | 94%
O=C1c2cccc3c(N(Cc4ccccn4)Cc4ccccn4)ccc(c23)C(=O)N1CCN(Cc1ccccn1)Cc1ccccn1 | ~11%
CN(C)c1ccc2c3c(cccc13)C(=O)N(CCN(Cc1ccccn1)Cc1ccccn1)C2=O | ~11%
CN(C)c1ccc2c3c(cccc13)C(=O)N(CCc1ccc(O)c(O)c1)C2=O | ~95%
